The reader will find reported EC50 values listed item by item below.
Subject Of Test: LXRβ full length (FL) (Homo sapiens, UniProt P55055, INS174Q)
Construct: the full length (FL) proteins of LXRα (amino acids 1-447); NP005684; NP009052
Sequence (P55055 with tags, fused parts or gaps INS174Q): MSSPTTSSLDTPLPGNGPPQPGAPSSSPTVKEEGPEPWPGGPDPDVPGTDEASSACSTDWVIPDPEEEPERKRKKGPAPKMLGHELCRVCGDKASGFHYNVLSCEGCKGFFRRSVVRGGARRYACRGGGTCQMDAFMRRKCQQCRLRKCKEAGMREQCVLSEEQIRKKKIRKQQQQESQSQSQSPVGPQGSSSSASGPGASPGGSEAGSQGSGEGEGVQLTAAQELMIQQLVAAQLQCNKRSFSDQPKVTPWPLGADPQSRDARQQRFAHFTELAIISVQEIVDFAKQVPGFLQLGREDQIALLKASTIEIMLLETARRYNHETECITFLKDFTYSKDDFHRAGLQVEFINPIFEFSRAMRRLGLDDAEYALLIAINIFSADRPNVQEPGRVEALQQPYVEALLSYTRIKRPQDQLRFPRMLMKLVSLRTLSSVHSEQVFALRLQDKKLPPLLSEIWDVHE
Test Name: LXR Gal4 reporter transient transfection assay, mammalian two-hybrid, FL-M2H Gal4β
Settings: HEK293 cells; inverse agonist unless *

Examples with their reported EC50 follow.
>>> recorded_value("CC(C)(C(=O)O)c1cccc(-c2ccc(CN(Cc3ccc(C(F)(F)F)o3)C(=O)c3c4c(nc5ccccc35)CCCC4)cc2)c1")
"< 100 nM"
>>> recorded_value("COc1cc(-c2cccc(S(=O)(=O)CC(=O)O)c2)ccc1CN(Cc1ccc(C(F)(F)F)o1)Cc1c(C)cc(C)cc1C")
"1000 to 10000 nM"
>>> recorded_value("Cc1ccc2c(F)cccc2c1CN(Cc1ccc(-c2cccc(C(C)(C)C(=O)O)c2)cc1)Cc1ccc(C(F)(F)F)o1")
"< 100 nM"

IN: Which measured EC50 value corresponds to "Cc1nc(C)c(CN(Cc2ccc(-c3cc(F)c(CO)c(S(=O)(=O)CC(=O)O)c3)cc2)Cc2ccc(C(F)(F)F)o2)c(C)n1" ?
OUT: 1000 to 10000 nM

IN: Try "CC1=C(C(=O)N(Cc2ccc(-c3cccc(C(C)(C)C(=O)O)c3)cc2)Cc2ccc(C(F)(F)F)o2)c2ccccc2CC1" next.
OUT: < 100 nM

IN: Cool, now "Cc1ccc2ccccc2c1C(=O)N(Cc1ccc(-c2cccc(C(C)(C)C(=O)O)c2)cc1)Cc1ccc(C(F)F)o1"
OUT: < 100 nM

IN: Please answer likewise for "Cc1ccc2nc(C)c(C)c(C(=O)N(Cc3ccc(-c4cccc(C(C)(C)C(=O)O)c4)cc3)Cc3ccc(C(F)(F)F)o3)c2c1"
OUT: < 100 nM

---

Subject Of Test: LXRα full length (FL) (Homo sapiens)
Construct: the full length (FL) proteins of LXRα (amino acids 1-447); NP005684
Sequence (Q13133 whole entry, the tested form may be a part): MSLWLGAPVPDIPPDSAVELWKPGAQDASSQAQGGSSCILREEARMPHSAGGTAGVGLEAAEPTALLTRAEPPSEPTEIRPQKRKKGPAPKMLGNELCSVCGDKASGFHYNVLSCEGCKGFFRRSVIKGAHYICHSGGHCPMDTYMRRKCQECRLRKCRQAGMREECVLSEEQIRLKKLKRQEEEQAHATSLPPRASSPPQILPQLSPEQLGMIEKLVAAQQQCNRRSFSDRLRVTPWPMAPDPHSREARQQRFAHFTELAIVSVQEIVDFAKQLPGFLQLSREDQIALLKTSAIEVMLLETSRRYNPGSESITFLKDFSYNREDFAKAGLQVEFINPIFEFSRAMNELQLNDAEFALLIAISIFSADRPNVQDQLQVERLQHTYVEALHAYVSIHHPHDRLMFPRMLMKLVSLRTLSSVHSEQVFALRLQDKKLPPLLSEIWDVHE
Test Name: LXR Gal4 reporter transient transfection assay, mammalian two-hybrid, FL-M2H Gal4α
Settings: HEK293 cells; inverse agonist unless *
pEC50: −log10 of the molar value.
Entries and their measured pEC50 follow.

Example results:
>>> recorded_value("Cc1ccc2ccc(F)cc2c1C(=O)N(Cc1ccc(-c2cccc(C(C)(C)C(=O)O)c2)cc1)Cc1ccc(C(F)(F)F)o1")
"> 7.00"
>>> recorded_value("Cc1ccc2ccccc2c1C(=O)N(Cc1ccc(C(F)(F)F)o1)Cc1ccc(-c2cccc(C(C)(C)C(=O)O)c2)cc1C#N")
"> 7.00"
>>> recorded_value("Cc1ccc2ccccc2c1C(=O)N(Cc1ccc(-c2cc(F)cc(C3(C(=O)O)CC3)c2)cc1)Cc1ccc(C(F)(F)F)o1")
"> 7.00"
>>> recorded_value("Cc1ccc2ccccc2c1C(=O)N(Cc1ccc(-c2cccc(C(C)(C)C(=O)O)c2)cc1)Cc1ccc(C(=O)O)o1")
"5.00 to 6.00"
>>> recorded_value("CCOC(=O)c1ccc(CN(Cc2ccc(-c3cccc(C(C)(C)C(=O)O)c3)cc2)C(=O)c2c(C)ccc3ccccc23)o1")
"> 7.00"

IN: What does the record list as pEC50 for "Cc1ccc2ccc(C(N)=O)cc2c1CN(Cc1ccc(-c2cccc(C(C)(C)C(=O)O)c2)cc1)Cc1ccc(C(F)(F)F)o1" ?
OUT: 6.00 to 7.00

IN: # repeat for "CNc1nc(-c2cccc(C(C)(C)C(=O)O)c2)ccc1CN(Cc1ccc(C(F)(F)F)o1)C(=O)c1c(C)ccc2ccccc12"
OUT: 6.00 to 7.00
